Recorded values, source patent US9475815B2.

# Test system: Human umbilical vein endothelial cells (HUVEC)
# test protocol: Inhibition of growth factor-mediated cell proliferation (hFGF-2)
# Type: cell-based
# conditions: 72 h exposure, hFGF-2 stimulated; from averaged pIC50 values
assay readout: IC50

q: Can you share its IC50? I mean this compound: COc1cc(C)cc2cc(-c3cc(CN4CCNCC4)n4ncnc(N)c34)sc12 [Example 2]
a: 127 nM

----------
// reported IC50 for each item listed
# subject of test: human FGFR-1 (Homo sapiens)
# test protocol: FGFR-1 high ATP kinase assay (TR-FRET)
Counter-ions that a name gives are not always drawn.
Please respond with the number in nM and leave the unit unwritten.

| compound | unit text | IC50 |
| --- | --- | --- |
| COc1cc(C)cc2cc(-c3cc(CN[C@@H](CC(N)=O)C(=O)O)n4ncnc(N)c34)sc12 [Example 92] | nM | 46.2 |
| COc1cc(C)cc2cc(-c3cc(CN4CCN5CCCC5C4)n4ncnc(N)c34)sc12 (centres unmarked) [Example 50] | nM | 59.3 |
| COc1cc(C)cc2cc(-c3cc(CNCCNC(N)=O)n4ncnc(N)c34)sc12 [Example 30] | nM | 54.2 |
| COc1cc(C)cc2cc(-c3cc(CNCCN)n4ncnc(N)c34)sc12 [Example 32] | nM | 23.3 |
| COc1cc(C)cc2cc(-c3cc(COCCN)n4ncnc(N)c34)sc12 [Example 120] | nM | 50.8 |
| COc1cc(C)cc2cc(-c3cc(CN[C@H]4CC[C@@H](N(C)C)CC4)n4ncnc(N)c34)sc12 [Example 87] | nM | 13.2 |
| COc1cc(C)cc2cc(-c3cc(CN4CCCC(O)C4)n4ncnc(N)c34)sc12 (centres unmarked) [Example 70] | nM | 62 |
| COc1cc(C)cc2cc(-c3cc(C(=O)N4CCC[C@](C)(N)C4)n4ncnc(N)c34)sc12 [Example 105] | nM | 20.4 |

q: Can you share its IC50? I mean this compound: COc1cc(C)cc2cc(-c3cc(CNC4CC4)n4ncnc(N)c34)sc12 [Example 81]
a: 93.4

q: Another: COc1cc(C)cc2cc(-c3cc(CN[C@H]4CCNC4=O)n4ncnc(N)c34)sc12 [Example 14]
a: 43.6

q: Another: COc1cc(C)cc2cc(-c3cc(CN4CCNC(=O)C4)n4ncnc(N)c34)sc12 [Example 8, dihydrochloride]
a: 29

q: Another: COc1cc(C)cc2cc(-c3cc(CN4CC(O)C(NCCO)C4)n4ncnc(N)c34)sc12 (centres unmarked) [Example 21]
a: 13.2

q: Another: COc1cc(C)cc2cc(-c3cc(CN4CCCNCC4)n4ncnc(N)c34)sc12 [Example 48]
a: 28.9

q: Another: COc1cc(C)cc2cc(-c3cc(CN4CCC(N)CC4)n4ncnc(N)c34)sc12 [Example 26]
a: 82.6

q: Another: COc1cc(C)cc2cc(-c3cc(CN4CCC(OC)CC4)n4ncnc(N)c34)sc12 [Example 82]
a: 97.3

q: Another: COc1cc(C)cc2cc(-c3cc(CN4CC5CC5(N)C4)n4ncnc(N)c34)sc12 (centres unmarked) [Example 27]
a: 42.2

q: Another: COc1cc(C)cc2cc(-c3cc(CNCCN4CCC(O)CC4)n4ncnc(N)c34)sc12 [Example 58]
a: 36.2

----------
# subject of test: human mTOR (Homo sapiens (Human))
# test protocol: mTOR kinase assay (TR-FRET, for comparative purposes)
# Format: biochemical
# conditions: read-out: mTOR % inhibition @ 1 μM, 1 μM test compound, 40 μM ATP, mean values
Where a name gives a salt, the structure may show the parent alone.
assay readout: inhibition at 1 µM (%)
Please respond with the number in % and leave the unit unwritten.

q: Can you share its inhibition at 1 µM? I mean this compound: COc1cc(C)cc2cc(-c3cc(CN4CCC(NCC(C)O)C4)n4ncnc(N)c34)sc12 (centres unmarked)
a: 14

q: Another: COc1cccc2cc(-c3cc(CN4CCNCC4)n4ncnc(N)c34)sc12
a: 12.2

q: Another: COc1cc(C)cc2cc(-c3cc(COC[C@H]4CCCN4)n4ncnc(N)c34)sc12
a: 4.9

q: Another: COc1cc(C)cc2cc(-c3cc(CNC(=O)CN)n4ncnc(N)c34)sc12 [Example 106, dihydrochloride]
a: 5.6

q: Another: COc1cc(C)cc2cc(-c3cc(CNC(C)(C)CN4CCCC4)n4ncnc(N)c34)sc12
a: 16.2

q: Another: COc1cc(C)cc2cc(-c3cc(CN4CCNC(=O)C4)n4ncnc(N)c34)sc12 [Example 8, dihydrochloride]
a: 45.9

q: Another: COc1cc(C)cc2cc(-c3cc(CNC4CCC(N)C4)n4ncnc(N)c34)sc12 (centres unmarked)
a: 15

q: Another: CCC1CN(Cc2cc(-c3cc4cc(C)cc(OC)c4s3)c3c(N)ncnn23)CCN1 (centres unmarked)
a: 18.3

----------
# subject of test: human mTOR (Homo sapiens (Human), UniProt P42345)
# Sequence (P42345 1360-2549): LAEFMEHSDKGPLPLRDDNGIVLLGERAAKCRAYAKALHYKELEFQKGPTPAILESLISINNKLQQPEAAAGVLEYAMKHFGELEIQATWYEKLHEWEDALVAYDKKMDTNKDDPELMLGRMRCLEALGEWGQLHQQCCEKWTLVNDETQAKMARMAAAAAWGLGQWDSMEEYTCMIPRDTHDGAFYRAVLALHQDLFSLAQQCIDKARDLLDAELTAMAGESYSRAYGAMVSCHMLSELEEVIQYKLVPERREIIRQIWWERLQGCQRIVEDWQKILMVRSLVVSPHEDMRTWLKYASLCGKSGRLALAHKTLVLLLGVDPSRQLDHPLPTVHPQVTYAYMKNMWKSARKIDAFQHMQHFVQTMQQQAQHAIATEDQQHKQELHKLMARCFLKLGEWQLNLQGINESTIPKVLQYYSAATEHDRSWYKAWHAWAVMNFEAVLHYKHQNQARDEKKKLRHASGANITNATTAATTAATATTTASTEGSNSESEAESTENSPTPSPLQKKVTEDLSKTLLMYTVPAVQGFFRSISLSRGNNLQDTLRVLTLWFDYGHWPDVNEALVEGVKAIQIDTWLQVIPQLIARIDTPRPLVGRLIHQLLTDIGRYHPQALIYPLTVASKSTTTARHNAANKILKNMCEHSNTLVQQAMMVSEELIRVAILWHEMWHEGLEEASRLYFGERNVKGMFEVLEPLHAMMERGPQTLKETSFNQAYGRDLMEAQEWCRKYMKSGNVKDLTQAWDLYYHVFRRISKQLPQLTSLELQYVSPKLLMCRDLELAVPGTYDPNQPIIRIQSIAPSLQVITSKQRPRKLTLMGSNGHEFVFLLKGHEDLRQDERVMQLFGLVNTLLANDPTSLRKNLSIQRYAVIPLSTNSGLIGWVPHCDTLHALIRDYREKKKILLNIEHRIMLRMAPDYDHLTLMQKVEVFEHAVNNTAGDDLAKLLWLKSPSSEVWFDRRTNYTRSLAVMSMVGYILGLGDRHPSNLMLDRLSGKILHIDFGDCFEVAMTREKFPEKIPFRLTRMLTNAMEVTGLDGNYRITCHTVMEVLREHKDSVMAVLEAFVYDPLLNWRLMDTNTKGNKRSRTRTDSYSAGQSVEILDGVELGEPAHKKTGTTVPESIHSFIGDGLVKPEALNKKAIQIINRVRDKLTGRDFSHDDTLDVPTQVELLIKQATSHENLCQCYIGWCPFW
# test protocol: mTOR kinase assay (TR-FRET, for comparative purposes)
# Type: biochemical
# conditions: read-out: mTOR % inhibition @ 1 μM, 1 μM test compound, 40 μM ATP, mean values
Where a name gives a salt, the structure may show the parent alone.
// reported inhibition at 1 µM for each item listed
Please respond with the number in % and leave the unit unwritten.

Solved entries (count: 5):
| molecule | inhibition at 1 µM (%) |
| --- | --- |
| COc1cc(C)cc2cc(-c3cc(CN4CCC(OC)CC4)n4ncnc(N)c34)sc12 [Example 82] | 18.7 |
| COc1cc(C)cc2cc(-c3cc(CN4CC(N(C)C)C4)n4ncnc(N)c34)sc12 [Example 66] | 5.9 |
| COc1cc(C)cc2cc(-c3cc(CN4CCN(C)CC4)n4ncnc(N)c34)sc12 [Example 12] | 11.4 |
| COc1cc(C)cc2cc(-c3cc(CNCCNC(N)=O)n4ncnc(N)c34)sc12 [Example 30] | 16.2 |
| COc1cc(C)cc2cc(-c3cc(CNC4CCN(C)CC4)n4ncnc(N)c34)sc12 [Example 69] | 4.6 |

q: Can you share its inhibition at 1 µM? I mean this molecule: CCN1CCN(Cc2cc(-c3cc4cc(C)cc(OC)c4s3)c3c(N)ncnn23)CC1 [Example 13]
a: 25.2

q: Another: COc1cc(Cl)cc2cc(-c3cc(CN4CCNCC4)n4ncnc(N)c34)sc12 [Example 4, trihydrochloride]
a: 26.2

q: Another: COc1cc(C)cc2cc(-c3cc(CN[C@@H](CC(N)=O)C(=O)O)n4ncnc(N)c34)sc12 [Example 92]
a: 19.9

q: Another: COc1cc(C)cc2cc(-c3cc(CN4CCNCC4)n4ncnc(N)c34)sc12 [Example 1, trihydrochloride hydrate]
a: 17.6

q: Another: COc1cc(C)cc2cc(-c3cc(Cn4ccnc4C#N)n4ncnc(N)c34)sc12 [Example 122]
a: 35.7

----------
# subject of test: human FGFR-1 (Homo sapiens, UniProt P11362)
# Sequence (P11362 22-822 limits assumed): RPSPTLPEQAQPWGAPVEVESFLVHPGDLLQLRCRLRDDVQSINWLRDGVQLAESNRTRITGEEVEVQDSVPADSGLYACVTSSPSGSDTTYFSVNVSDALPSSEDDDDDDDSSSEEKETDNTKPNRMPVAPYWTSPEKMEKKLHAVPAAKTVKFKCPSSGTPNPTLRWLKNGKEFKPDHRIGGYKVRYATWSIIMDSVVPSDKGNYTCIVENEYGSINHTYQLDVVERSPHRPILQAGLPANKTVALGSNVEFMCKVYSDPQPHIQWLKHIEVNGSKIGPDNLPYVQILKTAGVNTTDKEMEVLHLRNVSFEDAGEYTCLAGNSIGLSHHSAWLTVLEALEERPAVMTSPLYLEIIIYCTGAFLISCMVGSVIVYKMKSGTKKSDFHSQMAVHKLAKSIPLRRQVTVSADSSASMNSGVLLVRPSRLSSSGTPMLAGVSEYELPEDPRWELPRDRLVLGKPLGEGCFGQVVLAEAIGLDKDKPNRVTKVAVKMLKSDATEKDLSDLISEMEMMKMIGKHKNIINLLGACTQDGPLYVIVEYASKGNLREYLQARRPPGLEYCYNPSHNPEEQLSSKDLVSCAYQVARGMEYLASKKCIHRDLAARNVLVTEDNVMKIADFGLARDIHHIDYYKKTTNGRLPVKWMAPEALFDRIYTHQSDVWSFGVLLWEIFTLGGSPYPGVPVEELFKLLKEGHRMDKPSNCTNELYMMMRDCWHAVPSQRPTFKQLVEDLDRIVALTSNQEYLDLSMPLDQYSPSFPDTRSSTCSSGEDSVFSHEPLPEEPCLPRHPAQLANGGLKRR
# test protocol: FGFR-1 high ATP kinase assay (TR-FRET)
// reported pIC50 for each item listed
Interpret pIC50 as the negative base-10 log of the concentration measured in mol/L.

| molecule | pIC50 |
| --- | --- |
| COc1cc(C)cc2cc(-c3cc(CNC4CCS(=O)(=O)C4)n4ncnc(N)c34)sc12 (centres unmarked) [Example 78] | 7.06 |
| COc1cc(C)cc2cc(-c3cc(CN4CC(C)NCC4C)n4ncnc(N)c34)sc12 (centres unmarked) [Example 44] | 7.41 |
| COc1cc(C)cc2cc(-c3cc(CNC4CCCN(C)C4)n4ncnc(N)c34)sc12 (centres unmarked) [Example 43] | 7.30 |
| CCN[C@H]1CCN(Cc2cc(-c3cc4cc(C)cc(OC)c4s3)c3c(N)ncnn23)C1 [Example 16] | 7.81 |
| COc1cccc2cc(-c3cc(CN4CCNCC4)n4ncnc(N)c34)sc12 [Example 3] | 7.03 |

q: Find pIC50 (human FGFR-1 (Homo sapiens, UniProt P11362)) for the entry COc1cc(C)cc2cc(-c3cc(CN4CCNC(=O)CC4)n4ncnc(N)c34)sc12 [Example 20]
a: 7.26

q: Another: COc1cc(C)cc2cc(-c3cc(C(=O)N4CCNC(C)(C)C4)n4ncnc(N)c34)sc12 [Example 103]
a: 7.29

q: Another: COc1cc(C)cc2cc(-c3cc(CN4CCN(C(=O)C5CCC5)CC4)n4ncnc(N)c34)sc12 [Example 94]
a: 7.17

----------
# subject of test: human FGFR-1 (Homo sapiens)
# test protocol: FGFR-1 high ATP kinase assay (TR-FRET)
Counter-ions that a name gives are not always drawn.
assay readout: IC50
Form field: result (number plus unit)

Solved entries (count: 3):
| compound | subject of test | IC50 |
| --- | --- | --- |
| COc1cc(C)cc2cc(-c3cc(CNC4CCCC4O)n4ncnc(N)c34)sc12 (centres unmarked) | human FGFR-1 (Homo sapiens) | 98.6 nM |
| CCC(N)COCc1cc(-c2cc3cc(C)cc(OC)c3s2)c2c(N)ncnn12 (centres unmarked) | human FGFR-1 (Homo sapiens) | 67.2 nM |
| COc1cc(C)cc2cc(-c3cc(CN4CCNC(=O)C4(C)C)n4ncnc(N)c34)sc12 | human FGFR-1 (Homo sapiens) | 95 nM |

q: Find IC50 (human FGFR-1 (Homo sapiens)) for the entry COc1cc(C)cc2cc(-c3cc(C(=O)NC4CCNC4=O)n4ncnc(N)c34)sc12 (racemic) [Example 98, hydrochloride]
a: 9 nM
